# Test system: MV-4-11 human acute myeloid leukemia cell line
# assay_explanation: Second cell viability assay in MV-4-11 (Cell Titer-Glo)
# Assay type: cell-based
# stated_conditions: Homo sapiens; MV4-11, Cell Titer-Glo, 72 hrs; read-out: Cell Viability IC50 in MV4-11 cells
pIC50: −log10 of the molar value.
Use Y when the recorded pIC50 is no lower than 7; use N when it is lower.

Req: In plain terms: is recorded pIC50 at least 7 for C=CC(=O)Nc1ccc(Oc2c(C)cccc2C)c(-c2cn(C)c(=O)c3sc(C(=O)NCC)cc23)c1 ?
Resp: N

Req: Please tell me: is the compound C=CC(=O)Nc1ccc(Oc2c(C)cccc2C)c(-c2cn(C)c(=O)cc2OC)c1 at or over 7 in terms of pIC50?
Resp: Y

Req: Answer whether pIC50 of C=CC(=O)Nc1ccc(Oc2ccc(OC)cc2)c(-c2cn(C)c(=O)c3ccccc23)c1 is greater than or equal to 7.
Resp: N

Hello, the source for this data is patent US11192900B2, in case you need it.
